- Target entity: CETP (Homo sapiens, UniProt P11597)
- Sequence (P11597 18-493): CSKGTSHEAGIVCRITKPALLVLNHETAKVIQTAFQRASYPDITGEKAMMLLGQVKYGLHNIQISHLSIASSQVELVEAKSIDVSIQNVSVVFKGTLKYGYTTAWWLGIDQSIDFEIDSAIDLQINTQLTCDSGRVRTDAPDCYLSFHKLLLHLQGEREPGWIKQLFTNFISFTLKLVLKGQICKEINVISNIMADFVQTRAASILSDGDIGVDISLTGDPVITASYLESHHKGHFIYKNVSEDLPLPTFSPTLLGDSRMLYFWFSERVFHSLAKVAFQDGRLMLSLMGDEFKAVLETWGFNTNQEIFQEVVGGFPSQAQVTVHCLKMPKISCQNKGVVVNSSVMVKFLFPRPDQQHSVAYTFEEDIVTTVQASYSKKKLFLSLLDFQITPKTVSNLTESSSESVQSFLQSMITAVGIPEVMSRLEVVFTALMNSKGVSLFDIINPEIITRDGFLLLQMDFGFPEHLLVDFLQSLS
- Measurement notes: Assay of CETP Inhibition using Purified Components (Reconstituted Buffer Assay)
- Format: biochemical
- Set-up: made in house; host or cells: CHO cells (serum-free conditioned medium)
- Measurement conditions: Inhibition of CETP activity in reconstituted buffer assay; transfer of [3H]CE from HDL to LDL; read-out: IC50
- Method: Assay of CETP Inhibition using Purified Components (Reconstituted Buffer Assay) The ability of compounds to inhibit CETP activity was assessed using an in vitro assay that measured the rate of transfer of radiolabeled cholesteryl ester ([^3H]CE) from HDL donor particles to LDL acceptor particles. […] After filtration, the radioactivity present in the precipitated LDL was measured by liquid scintillation counting. […] Examples of IC50 values determined by these methods are specified in Table 9.
pIC50: −log10 of the molar value.
Outcome measure: pIC50

Study these solved cases before continuing.
// pIC50 lookup, key: OC(CN(Cc1cccc(OC(F)(F)C(F)F)c1)c1cccc(OCc2cccc(Cl)c2F)c1)C(F)(F)F (stereo not shown) [Example 393] 6.09

Sample CCC(=O)COc1cccc(N(Cc2cccc(OC(F)(F)C(F)F)c2)CC(O)C(F)(F)F)c1 (stereo not shown) [Example 493] — what was its pIC50? 5.74

Recorded pIC50 of CC(Oc1cccc(N(Cc2cccc(OC(F)(F)C(F)F)c2)CC(O)C(F)(F)F)c1)c1ccccc1 (stereo not shown) [Example 429] , please. 6.36

Suppose we examine the compound O=[N+]([O-])c1cccc(COc2cccc(N(Cc3cccc(OC(F)(F)C(F)F)c3)CC(O)C(F)(F)F)c2)c1 (stereo not shown) [Example 382] ; what pIC50 value has been reported? 5.64

Requested read-out: pIC50. Entry: COc1ccc(N(Cc2cccc(C(F)(F)F)c2)CC(O)C(F)(F)F)cc1 (stereo not shown) [Example 51] 4.70

May I ask what pIC50 has been recorded for OC(CN(Cc1cccc(Cl)c1)Cc1cccc(OC(F)(F)F)c1)C(F)(F)F (stereo not shown) [compound 193] ? 5.00

(P) OC(CN(Cc1cccc(OC(F)(F)C(F)F)c1)c1cccc(N2CCCCC2)c1)C(F)(F)F (stereo not shown) [compound 315]
(Q) Cc1cccc(CN(CC(O)C(F)(F)F)c2ccc(F)c(F)c2)c1 (stereo not shown) [Example 17]
Between P and Q , whose recorded pIC50 is greater? Returns: label corresponding to the selected item. P
(P: 5.68, Q: 4.35)

---

- Target entity: CETP (Homo sapiens)
- Measurement notes: Assay of CETP Inhibition in Human Plasma
- Format: biochemical
- Set-up: Blood was obtained from healthy volunteers, recruited from the personnel of Monsanto Company; from tissue; host or cells: human EDTA plasma pool from healthy volunteers
- Measurement conditions: Inhibition of CETP activity in human plasma assay; transfer of [3H]CE from HDL to VLDL and LDL; read-out: IC50
Outcome measure: IC50 (µM)

Example results:
Kindly state the measured IC50 obtained for OC(CN(Cc1cccc(OC(F)(F)C(F)F)c1)c1cccc(OCc2cccc(F)c2F)c1)C(F)(F)F (centres unmarked) with CETP (Homo sapiens). 3.4

Item: OC(CN(Cc1cccc(OC(F)(F)C(F)F)c1)c1cccc(Oc2ccc(Cl)c(F)c2)c1)C(F)(F)F (centres unmarked) Test system: CETP (Homo sapiens) Read-out: IC50 Value: ? 13

IC50 of Cc1cc(Oc2cccc(N(Cc3cccc(OC(F)(F)C(F)F)c3)CC(O)C(F)(F)F)c2)cc(C)c1C (centres unmarked) on CETP (Homo sapiens)? 17

(1) CC(C)Sc1cccc(N(Cc2cccc(OC(F)(F)C(F)F)c2)CC(O)C(F)(F)F)c1 (centres unmarked)
(2) OC(CN(Cc1cccc(OC(F)(F)C(F)F)c1)c1cccc(OCc2cc(F)ccc2F)c1)C(F)(F)F (centres unmarked)
(3) OC(COc1cccc(CN(CC(O)C(F)(F)F)c2cccc(Oc3ccc(F)cc3)c2)c1)C(F)(F)F (centres unmarked) [Example 655B]
// smallest IC50 at index 0, largest at the end Write out the labels following the order that was asked for. 2, 1, 3

---

- Target entity: UniProt:P11597
- Measurement notes: Assay of CETP Inhibition using Purified Components (Reconstituted Buffer Assay)
- Type: biochemical
- Parameters: made in house; host or cells: CHO cells (serum-free conditioned medium)
- Measurement conditions: Inhibition of CETP activity in reconstituted buffer assay; transfer of [3H]CE from HDL to LDL; read-out: IC50
Outcome measure: IC50 (µM)

Previously resolved entries follow.
// IC50 lookup, key: O=S(=O)(Nc1cccc(N(Cc2cccc(OC(F)(F)C(F)F)c2)CC(O)C(F)(F)F)c1)c1ccccc1 (stereo not shown) [Example 529] 49

Param item = Cc1cc(Oc2cccc(N(Cc3cccc(OC(F)(F)C(F)F)c3)CC(O)C(F)(F)F)c2)cc(C)c1C (stereo not shown) [Example 247] ; retrieve measured IC50. 0.37

(a) OC(CN(Cc1cccc(OC(F)(F)C(F)F)c1)c1cccc(NCc2ccc(F)cc2)c1)C(F)(F)F (stereo not shown) [Example 543]
(b) OC(CN(Cc1cccc(OC(F)(F)C(F)F)c1)c1cccc(OCc2c(F)cc(F)cc2F)c1)C(F)(F)F (stereo not shown) [Example 392]
Lab note: check whether a or b has the lower measured IC50. Write down the label attached to your selection. b

(a) Cc1cccc(COc2cccc(N(Cc3cccc(OC(F)(F)C(F)F)c3)CC(O)C(F)(F)F)c2)c1 (stereo not shown) [Example 402]
(b) OC(CN(Cc1cccc(OC(F)(F)C(F)F)c1)c1cccc(OCc2ccncc2)c1)C(F)(F)F (stereo not shown) [Example 433]
(c) OC(CN(Cc1cccc(OC(F)(F)C(F)F)c1)c1cccc(OCc2ccc(OCc3ccccc3)cc2)c1)C(F)(F)F (stereo not shown) [Example 413]
(d) COc1ccc(Sc2cccc(N(Cc3cccc(OC(F)(F)C(F)F)c3)CC(O)C(F)(F)F)c2)cc1 (stereo not shown) [compound 291]
Please rank these compounds by IC50 in descending order. # format: label list in the order the request specifies c, d, b, a

---

- Target entity: CETP (Homo sapiens, UniProt P11597)
- Measurement notes: Assay of CETP Inhibition using Purified Components (Reconstituted Buffer Assay)
- Assay type: biochemical
- Design: made in house; host or cells: CHO cells (serum-free conditioned medium)
- Measurement conditions: Inhibition of CETP activity in reconstituted buffer assay; transfer of [3H]CE from HDL to LDL; read-out: IC50
pIC50: −log10 of the molar value.
Outcome measure: pIC50

// pIC50 lookup, key: Cc1cc(-c2cccc(N(Cc3cccc(OC(F)(F)C(F)F)c3)CC(O)C(F)(F)F)c2)ccc1F (stereo not shown) 5.92

(A) O=C(c1ccc(F)cc1)c1cccc(N(Cc2cccc(OC(F)(F)C(F)F)c2)CC(O)C(F)(F)F)c1 (stereo not shown)
(B) CC(C)c1ccc(COc2cccc(N(Cc3cccc(OC(F)(F)C(F)F)c3)CC(O)C(F)(F)F)c2)cc1 (stereo not shown)
(C) COc1cc(CN(CC(O)C(F)(F)F)c2cccc(OC(F)(F)F)c2)ccc1OCc1ccccc1 (stereo not shown)
Put these in order: smallest pIC50 first, largest last. // respond by listing labels in the order requested C, A, B
(C: 4.52, A: 5.64, B: 6.38)

---

- Target entity: CETP (Homo sapiens, UniProt P11597)
- Measurement notes: Assay of CETP Inhibition in Human Plasma
- Assay type: biochemical
- Set-up: Blood was obtained from healthy volunteers, recruited from the personnel of Monsanto Company; from tissue; host or cells: human EDTA plasma pool from healthy volunteers
- Measurement conditions: Inhibition of CETP activity in human plasma assay; transfer of [3H]CE from HDL to VLDL and LDL; read-out: IC50
Outcome measure: IC50 (µM)

// below: answered molecules
# lookup: IC50 of OC(CN(Cc1cccc(OC(F)(F)F)c1)c1cccc(C(F)(F)F)c1)C(F)(F)F (centres unmarked) [Example 42] 80

Tell me the measured IC50 of OC(CN(Cc1ccc(C(F)(F)F)cc1)c1cccc(OC(F)(F)F)c1)C(F)(F)F (centres unmarked) [Example 140] , please. 80

Fill in the blank: the reported IC50 of CSc1ccc(Oc2cccc(N(Cc3cccc(OC(F)(F)C(F)F)c3)CC(O)C(F)(F)F)c2)cc1 (centres unmarked) [Example 267] is ____. 27

(A) COC(=O)C=CCOc1cccc(N(Cc2cccc(OC(F)(F)C(F)F)c2)CC(O)C(F)(F)F)c1 (centres unmarked) [Example 499]
(B) OC(CN(Cc1cccc(OC(F)(F)F)c1)c1ccc(-c2ccccc2)cc1)C(F)(F)F (centres unmarked) [Example 79]
(C) OC(CN(Cc1cccc(OC(F)(F)C(F)F)c1)c1cccc(-c2ccc(F)c(F)c2F)c1)C(F)(F)F (centres unmarked) [Example 560]
In this exercise, place the 3 molecules in ascending sequence of their recorded IC50. Provide the ranking by listing each label in its place in the requested order. C, A, B

FYI, the data here is from patent US6723753B2.
